# Test system: ABL2;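 further: KINOMEscan kinase panel screen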
# SETUP CONDITIONS: concentration: 1 μM,replicates: in singlicate; n = 1
Please respond with reported %Inh for every item in the list.
Kindly write the number and append the unit.

Reference set, count: 4
>>> result("Cn1cc(-c2cccc3c(N)c(C(N)=O)nnc23)cn1")
"9%"
>>> result("C[C@@H]1CNc2c(sc3ccc4nc(-c5ccc(O)cc5)ccc4c23)C(=O)N1")
"3%"
>>> result("Cc1ccn2nc(-c3ccc(F)cc3)c(-c3ccncc3)c2c1.Cl")
"0%"
>>> result("Cc1cccc2c(-c3ccncc3)c(-c3ccc(F)cc3)nn12.Cl")
"5%"

// each listed compound needs a value for %Inh
1. COc1cc2c(Nc3ccc(NC(=O)c4ccccc4)cc3)ncnc2cc1OCCCN1CCOCC1
2. COc1cccc(C2=C(Nc3cccc(Cl)c3)C(=O)NC2=O)c1
3. FC(F)(F)c1cc(Br)cc(Nc2nccc(-c3cnn4ncccc34)n2)c1
4. NC(=O)Nc1sc(-c2ccc(F)cc2)cc1C(N)=O
5. C[C@@H](Oc1cc(-n2cnc3cc(-c4cnn(C)c4)ccc32)sc1C(N)=O)c1ccccc1Cl

A:
1. 20%
2. 8%
3. 0%
4. 3%
5. 63%
